- Experiment summary: folding enthalpy; higher = less favourable; fluorescence melt of hairpins on a sequencing array, two-state fit
- Test conditions: sodium 0.088 M
Measurement name: folding enthalpy (kcal/mol)
Report as a plain number; the unit kcal/mol is understood.

Ask | Please report folding enthalpy for the following sequence: GTGTTTCCGAAAGGACAC (((..(((....))))))
Reply | -23.4

Ask | Please report folding enthalpy for the following sequence: GTCGTCGGAAACGACGGC (.(((((....))))).)
Reply | -25.2

Ask | Please report folding enthalpy for the following sequence: GATCTGCGTTCAGATC ((((((....))))))
Reply | -37.5

Ask | Please report folding enthalpy for the following sequence: GATCGACGGGTCGATC ((((((....))))))
Reply | -46

Ask | Please report folding enthalpy for the following sequence: GTGCTCGAAAGAGGGCAC ((((((....)))..)))
Reply | -22.9

Ask | Please report folding enthalpy for the following sequence: GATGAGAAATCATC (((((....)))))
Reply | -20.6

---

Please go through the items and note down their folding enthalpy.
- Experiment summary: folding enthalpy; higher = less favourable; fluorescence melt of hairpins on a sequencing array, two-state fit
- Test conditions: sodium 0.088 M
A complete answer gives the number and then names the unit.

Ask | Please report folding enthalpy for the following sequence: GTATCTGGAAACAGACAC ((.((((....)))).))
Reply | -26.2 kcal/mol

Ask | Please report folding enthalpy for the following sequence: GCAAAAGGAAACTTTTGC (((((((....)))))))
Reply | -45 kcal/mol

Ask | Please report folding enthalpy for the following sequence: GAGTTCCGAAAGGATCTC (((.(((....))).)))
Reply | -29.3 kcal/mol

Ask | Please report folding enthalpy for the following sequence: GGCGTCGAAAGACTGGCC ((((((....)))..)))
Reply | -34.6 kcal/mol

Ask | Please report folding enthalpy for the following sequence: GATCCCCCCCGGGATC ((((((....))))))
Reply | -38.5 kcal/mol

Ask | Please report folding enthalpy for the following sequence: GCTTCGGAAACGAAGC ((((((....))))))
Reply | -36.3 kcal/mol

Ask | Please report folding enthalpy for the following sequence: GCGGCGCGAAAGCACAGC ((.(.((....)).).))
Reply | -29.9 kcal/mol

Ask | Please report folding enthalpy for the following sequence: GCTTTGGGAAACCAAGGC ((.((((....)))).))
Reply | -29.7 kcal/mol

Ask | Please report folding enthalpy for the following sequence: GGGGCCGAAAGGCGGCCC ((((((....)))..)))
Reply | -15.1 kcal/mol

Ask | Please report folding enthalpy for the following sequence: GATCTTGGAAACAAGATC (((((((....)))))))
Reply | -42.3 kcal/mol

Ask | Please report folding enthalpy for the following sequence: GTGTACTCGAAAGAGCAC (((..(((....))))))
Reply | -21.8 kcal/mol

Ask | Please report folding enthalpy for the following sequence: GACCACGGAAACGTGACC (..((((....))))..)
Reply | -8.43 kcal/mol

---

Please go through the items and note down their folding enthalpy.
- Experiment summary: folding enthalpy; higher = less favourable; fluorescence melt of hairpins on a sequencing array, two-state fit
- Test conditions: sodium 0.088 M
Report as a plain number; the unit kcal/mol is understood.

Ask | Please report folding enthalpy for the following sequence: GCTCGCCGAAAGGCTAGC (((.(((....))).)))
Reply | -27.9

Ask | Please report folding enthalpy for the following sequence: GTGAGCGGAAACGTTCGC (.((.((....)).)).)
Reply | -27.8

Ask | Please report folding enthalpy for the following sequence: GATCATTGCATGATC ((((((...))))))
Reply | -34

Ask | Please report folding enthalpy for the following sequence: GATCAACGTCTTGATC ((((((....))))))
Reply | -30.9

Ask | Please report folding enthalpy for the following sequence: GCGGCAACCGC ((((...))))
Reply | -23.4

Ask | Please report folding enthalpy for the following sequence: GATCTCGCGCGAGATC ((((((....))))))
Reply | -48.4

Ask | Please report folding enthalpy for the following sequence: GTAGTGCGAAAGCAATAC (((.(((....))).)))
Reply | -28

Ask | Please report folding enthalpy for the following sequence: CGTCACGGAAACGTAACG (((.(((....))).)))
Reply | -43.1

Ask | Please report folding enthalpy for the following sequence: GCTAGCCGAAAGGCGAGC (((.(((....))).)))
Reply | -30.9

Ask | Please report folding enthalpy for the following sequence: GCTACGCGAAAGCCTGGC ((.(.((....)).).))
Reply | -13.4

Ask | Please report folding enthalpy for the following sequence: GAGTCGCGAAAGCGCCTC (((.(((....))).)))
Reply | -23.7

Ask | Please report folding enthalpy for the following sequence: GAACACGGAAACGTGCTC ((.((((....)))).))
Reply | -18.6

Ask | Please report folding enthalpy for the following sequence: GTCACTCGAAAGAGCGAC (((.(((....))).)))
Reply | -43.5

Ask | Please report folding enthalpy for the following sequence: GTGTACGGAAACACACAC ((((..(....)..))))
Reply | -12.6

Ask | Please report folding enthalpy for the following sequence: GCATCGGCGAAAGCCTGC (((..(((....))))))
Reply | -15.2

Ask | Please report folding enthalpy for the following sequence: GCACGTGGAAACGCGTGC (((((.(....).)))))
Reply | -45.1

Ask | Please report folding enthalpy for the following sequence: CGACCGGAAACGGCGTCG ((((((....)))..)))
Reply | -18.1

Ask | Please report folding enthalpy for the following sequence: GCGTGTCCGAAAGGACGC (((..(((....))))))
Reply | -9.9

Ask | Please report folding enthalpy for the following sequence: GATCGGTACTCCGATC ((((((....))))))
Reply | -38.3

Ask | Please report folding enthalpy for the following sequence: GATCAACTTCTTGATC ((((((....))))))
Reply | -30

Ask | Please report folding enthalpy for the following sequence: GTCTGCGAAAGCATTGAC ((((((....)))..)))
Reply | -14

Ask | Please report folding enthalpy for the following sequence: GCCTCCGAAAGGATAGGC ((((((....)))..)))
Reply | -37.1

Ask | Please report folding enthalpy for the following sequence: GCCCTACCGAAAGGTGGC (((..(((....))))))
Reply | -20.8

Ask | Please report folding enthalpy for the following sequence: GATCCAAAATTGGATC ((((((....))))))
Reply | -35.8

Ask | Please report folding enthalpy for the following sequence: GGGGCTGCGAAAGCACCC (((..(((....))))))
Reply | -24.5
